Biological target: GP of E. coli (Escherichia coli, UniProt P0AC86, E280D/L281V)
Construct: His tag (pET-15b) (N); made in house; host or cells: E. coli BL21 (DE3) C43 transformed with pET15b-glgP (CECT 7071)
Sequence (P0AC86 other isoform, or with tags, fused parts or gaps E280D/L281V): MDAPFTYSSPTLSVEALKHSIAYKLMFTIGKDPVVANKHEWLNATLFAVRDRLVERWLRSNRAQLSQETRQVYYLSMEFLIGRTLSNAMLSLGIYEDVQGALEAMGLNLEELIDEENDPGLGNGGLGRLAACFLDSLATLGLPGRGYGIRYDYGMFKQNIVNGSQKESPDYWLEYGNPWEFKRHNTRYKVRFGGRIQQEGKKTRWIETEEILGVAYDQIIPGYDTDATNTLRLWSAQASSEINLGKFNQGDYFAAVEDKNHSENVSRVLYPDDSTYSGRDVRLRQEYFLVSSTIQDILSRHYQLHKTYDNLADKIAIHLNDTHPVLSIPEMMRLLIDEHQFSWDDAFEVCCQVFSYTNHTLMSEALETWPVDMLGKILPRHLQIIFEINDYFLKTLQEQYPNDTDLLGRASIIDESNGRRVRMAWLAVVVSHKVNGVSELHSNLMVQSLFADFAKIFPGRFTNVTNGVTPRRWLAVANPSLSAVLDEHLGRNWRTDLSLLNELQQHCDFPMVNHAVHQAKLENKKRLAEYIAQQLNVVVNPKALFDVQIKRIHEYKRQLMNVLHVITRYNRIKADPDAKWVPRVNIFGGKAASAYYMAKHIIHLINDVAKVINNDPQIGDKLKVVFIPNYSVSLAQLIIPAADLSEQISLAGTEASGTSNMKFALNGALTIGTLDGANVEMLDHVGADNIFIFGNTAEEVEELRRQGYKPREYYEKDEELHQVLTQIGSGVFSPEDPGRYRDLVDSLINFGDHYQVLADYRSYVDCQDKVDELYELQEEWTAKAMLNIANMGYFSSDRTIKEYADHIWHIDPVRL
Assay type: biochemical
Conditions: effector 2 mM
Quantity kind: Activity (U/mg protein)
Field format: number, assumed U/mg protein, no unit text.

Consider the reported Activity (U/mg protein) for these molecules:
O=C[C@H](O)[C@@H](O)[C@H](O)[C@H](O)COP(=O)(O)O [Glucose-6-phosphate] | 7.6
O=C(O)[C@H](O)COP(=O)(O)O [3-phosphoglycerate] | 8.9
Nc1ncnc2c1ncn2[C@@H]1O[C@H](COP(=O)(O)OP(=O)(O)O[C@H]2O[C@H](CO)[C@@H](O)[C@H](O)[C@H]2O)[C@@H](O)[C@H]1O | 8.3
O=C(COP(=O)(O)O)[C@@H](O)[C@H](O)[C@H](O)COP(=O)(O)O [Fructose-1,6-bisphosphate] | 9.0
O=C(CO)[C@@H](O)[C@H](O)[C@H](O)COP(=O)(O)O [Fructose-6-phosphate] | 8.4

Please report the measured Activity (U/mg protein) for Nc1ncnc2c1ncn2[C@@H]1O[C@H](COP(=O)(O)OP(=O)(O)O)[C@@H](O)[C@H]1O 7.0

Let me know recorded Activity (U/mg protein) for Nc1ncnc2c1ncn2[C@@H]1O[C@H](COP(=O)(O)OP(=O)(O)OP(=O)(O)O)[C@@H](O)[C@H]1O , thanks. 4.8

----------
Target: GP of E. coli (Escherichia coli, UniProt P0AC86, E280D/L281V)
Construct: His tag (pET-15b) (N); made in house; host or cells: E. coli BL21 (DE3) C43 transformed with pET15b-glgP (CECT 7071)
Experiment: Substrate specificity of GP of E. coli (products by HPLC with amperometric detection)
Assay type: biochemical
Quantity kind: Recognition as substrate by the GP of E. coli

OC[C@H]1O[C@H](O[C@H]2[C@H](O)[C@@H](O)C(O)O[C@@H]2CO)[C@H](O)[C@@H](O)[C@@H]1O (mixture of isomers) | does not act on
OC[C@H]1O[C@H](O[C@H]2[C@H](O)[C@@H](O)[C@@H](O[C@H]3[C@H](O)[C@@H](O)[C@@H](O[C@H]4[C@H](O)[C@@H](O)C(O)O[C@@H]4CO)O[C@@H]3CO)O[C@@H]2CO)[C@H](O)[C@@H](O)[C@@H]1O (stereo partly shown) | does not act on
OC[C@H]1O[C@H](O[C@H]2[C@H](O)[C@@H](O)[C@@H](O[C@H]3[C@H](O)[C@@H](O)[C@@H](O[C@H]4[C@H](O)[C@@H](O)[C@@H](O[C@H]5[C@H](O)[C@@H](O)[C@@H](O[C@H]6[C@H](O)[C@@H](O)C(O)O[C@@H]6CO)O[C@@H]5CO)O[C@@H]4CO)O[C@@H]3CO)O[C@@H]2CO)[C@H](O)[C@@H](O)[C@@H]1O (stereo partly shown) [Maltohexose] | recognizes
OC[C@H]1O[C@H](O[C@H]2[C@H](O)[C@@H](O)[C@@H](O[C@H]3[C@H](O)[C@@H](O)[C@@H](O[C@H]4[C@H](O)[C@@H](O)[C@@H](O[C@H]5[C@H](O)[C@@H](O)[C@@H](O[C@H]6[C@H](O)[C@@H](O)[C@@H](O[C@H]7[C@H](O)[C@@H](O)C(O)O[C@@H]7CO)O[C@@H]6CO)O[C@@H]5CO)O[C@@H]4CO)O[C@@H]3CO)O[C@@H]2CO)[C@H](O)[C@@H](O)[C@@H]1O (stereo partly shown) | recognizes
